measurement_target: T1, human plasma kallikrein (human, UniProt P03952 20-390; P03952 391-638)
T1 construct: also called pKal; Human pKal
T1 sequence (P03952 20-390, chain 1 of 2): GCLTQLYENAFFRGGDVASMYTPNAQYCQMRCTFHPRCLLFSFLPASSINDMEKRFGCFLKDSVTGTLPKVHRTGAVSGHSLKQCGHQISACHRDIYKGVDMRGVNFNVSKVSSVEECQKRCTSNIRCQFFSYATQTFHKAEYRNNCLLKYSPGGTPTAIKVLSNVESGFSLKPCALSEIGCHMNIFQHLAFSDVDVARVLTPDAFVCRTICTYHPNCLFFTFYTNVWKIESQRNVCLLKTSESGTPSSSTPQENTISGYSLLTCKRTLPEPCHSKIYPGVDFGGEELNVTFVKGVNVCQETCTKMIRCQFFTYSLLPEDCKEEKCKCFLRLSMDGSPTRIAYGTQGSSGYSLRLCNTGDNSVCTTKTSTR
T1 sequence (P03952 391-638, chain 2 of 2): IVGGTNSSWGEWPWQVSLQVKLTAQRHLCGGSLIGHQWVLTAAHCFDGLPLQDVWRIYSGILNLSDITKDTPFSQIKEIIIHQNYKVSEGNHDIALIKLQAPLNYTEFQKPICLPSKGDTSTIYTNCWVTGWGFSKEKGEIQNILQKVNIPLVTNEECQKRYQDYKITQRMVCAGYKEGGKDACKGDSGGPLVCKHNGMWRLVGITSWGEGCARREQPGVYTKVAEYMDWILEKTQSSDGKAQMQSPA
method_description: ELISA, biotinylated pKal signal over streptavidin background
property: ELISA (T/B)
Numbers only, in T/B.

In the examples that follow, each entry is paired with its recorded ELISA (T/B).
1) M137-E12 (Fab, V domains shown, HC as printed runs into CH1) VH: EVQLLESGGGLVQPGGSLRLSCAASGFTFSDYRMQWVRQAPGKGLEWVSVIVPSGGNTMYADSVKGRFTISRDNSKNTLYLQMNSLRAEDTAVYYCARGGPGSSIAARRAPTGYYGMDVWGQGTTVTVSS VL: QSVLIQPPSVSGIPGQRVTISCSGNNSNFGSNTVTWYQQLPGTAPKLLIYSDSRRPSGVPDRFSGSRSDTSASLAISGLQSEDEAEYHCAAWDDSLNGVFGGGTKLTVL :: 4.5
2) M11-E05 (Fab, V domains shown, HC as printed runs into CH1) VH: EVQLLESGGGLVQPGGSLRLSCAASGFTFSWYTMGWVRQAPGKGLEWVSWIYFGGLTTYADSVKGRFTISRDNSKNTLYLQMNSLRAEDTAVYYCARLGGPLDAFDIWGQGTMVTVSS VL: DIQMTQSPSSLSASVGDTVTITCRTSQTINNYLNWYQQRPGEAPKVLIYATHTLESGVPSRFSGSGSGTDFTLTIGSLQPEDFATYYCQQSFAFPYTFGQGTKVEIT :: 41.4
3) M29-E09 (Fab, V domains shown, HC as printed runs into CH1) VH: EVQLLESGGGLVQPGGSLRLSCAASGFTFSWYEMGWVRQAPGKGLEWVSSIYSSGGGTMYADSVKGRFTISRDNSKNTLYLQMNSLRAEDTAVYYCARNPQYSGYDRSLSDGAFDIWGQGTMVTVSS VL: QYELTQPPSVSVSPGQTATITCSGDNLGNKYNSWYQQKPGQSPLLVIYQDTKRPSAIPERFSGSNSGNTATLTISGTQAMDEADYYCQAWDGNVVFGGGTKLTVL :: 28.8
4) M110-C12 (Fab, V domains shown, HC as printed runs into CH1) VH: EVQLLESGGGLVQPGGSLRLSCAASGFTFSYYEMDWVRQAPGKGLEWVSGISSSGGHTAYADSVKGRFTISRDNSKNTLYLQMNSLRAEDTATYYCARERRSSSRARYYYGMDVWGQGTTVTVSS VL: DIQMTQSPLSLSVTPGEPASISCRSSLSLLHSNGYNYLDWYVQRPGQSPQLLMYLSSTRASGVPDRFSGSGSGTDFTLEISRVEAEDVGVYYCMQPLETPPTFGGGTKVEIK :: 2.4

Please examine the following record next.
**Query** # query: ELISA (T/B) of entry M161-C11 (Fab, V domains shown, HC as printed runs into CH1) VH: EVQLLESGGGLVQPGGSLRLSCAASGFTFSDYAMKWVRQAPGKGLEWVSSISSSGGVTQYADSVKGRFTISRDNSKNTLYLQMNSLRAEDTAVYYCAREEDYSSSWYSRRFDYYYGMDVWGQGTTVTVSS VL: QSALTQPPSVSVSPGQTASITCSGDKLGDKYVSWYQQRPGQSPVLVIYQDTKRPSGIPERFSGSNSGNTATLTISGTQAVDEADYYCQAWDSSTYVFGGGTKVTVL
**Result** 41.8
